Values compiled from ChEMBL document CHEMBL1136744.

Assay: Ability to reverse action of CpG-ODN on WEHI 231 murine B-cell lymphoma cells
Type: functional, cell-based, Mus musculus
# if measured Log 1/EC50 < 8: Y  # else: N

Compound: CN1CCN(Cc2cc(Nc3cc(-c4ccc(N5CCN(C)CC5)cc4)nc4ccccc34)cc(CN3CCN(C)CC3)c2O)CC1
Label value: N

Compound: CN1CCN(c2ccc(-c3cc(NCCCCN4CCCC4)c4ccccc4n3)cc2)CC1
Label value: N

Compound: CN1CCN(c2ccc(-c3cc(NCCCN4CCOCC4)c4ccccc4n3)cc2)CC1
Label value: N

Compound: Fc1ccc(-c2cc(NCCN3CCCC3)c3ccccc3n2)cc1
Label value: Y

Compound: CCN1CCCC1CNc1cc(-c2ccc(C)cc2)nc2ccccc12 (stereo not given)
Label value: Y

Enquiry: Log 1/EC50 under 8? Item: "CCN(CC)CCNc1cc(-c2ccc(C)cc2)nc2ccccc12"
Return: Y

Enquiry: Log 1/EC50 under 8? Item: "CN1CCN(Cc2ccc(-c3cc(NCCN4CCCC4)c4ccccc4n3)cc2)CC1"
Return: N
